- Test system: soybean (Glycine max)
- Protocol Details: Test C preemergence, soybean
- Format: in vivo
- Reported Conditions: 31 g ai/ha Preemergence; 0 is no effect, 100 is complete control
Result Type: Plant response rating (0 to 100 scale), Soybean

Compound: CCCC(=O)OCN(c1cc(N2CCC(OC3CC3)C2=O)c(C)cc1C)S(=O)(=O)C(F)(F)F (stereo not shown) [Compound 20]
Observed Value: 70
--
Compound: Cc1cc(C)c(N2CCC(OCC3CC3)C2=O)cc1NS(=O)(=O)C(F)(F)F (stereo not shown) [Compound 22]
Observed Value: 80
--
Compound: Cc1c(NS(=O)(=O)C(F)(F)F)cc(N2CCC(OCC3CC3)C2=O)c(C)c1F (stereo not shown) [Compound 63]
Observed Value: 60
--
Compound: COC(=O)N(c1cc(N2CCC(OC3CC3)C2=O)c(C)cc1C)S(=O)(=O)C(F)(F)F (stereo not shown) [Compound 16]
Observed Value: 20

* * *

Each entry below lists one item and its recorded Plant response rating (0 to 100 scale), Blackgrass value.
- Test system: blackgrass (Alopecurus myosuroides)
- Protocol Details: Test C postemergence, blackgrass
- Assay type: in vivo
- Reported Conditions: 125 g ai/ha Postemergence; 0 is no effect, 100 is complete control
Result Type: Plant response rating (0 to 100 scale), Blackgrass

Molecule: C#CCO/N=C1\CCN(c2cc(NS(=O)(=O)C(F)(F)F)c(C)cc2C)C1=O
Assayed System: blackgrass (Alopecurus myosuroides)
Observed Value: 90

Molecule: CCOC(=O)N(c1cc(N2CCC(OC3CC3)C2=O)c(C)cc1C)S(=O)(=O)C(F)(F)F (stereo not shown)
Assayed System: blackgrass (Alopecurus myosuroides)
Observed Value: 40

Molecule: C=CCO/N=C1\CCN(c2cc(NS(=O)(=O)C(F)(F)F)c(C)cc2C)C1=O
Assayed System: blackgrass (Alopecurus myosuroides)
Observed Value: 90

Molecule: Cc1c(N2CCC(OC3CCC3)C2=O)cc(N(COC(=O)C(C)(C)C)S(=O)(=O)C(F)(F)F)c(C)c1F (stereo not shown)
Assayed System: blackgrass (Alopecurus myosuroides)
Observed Value: 70

* * *

Each entry below lists one item and its recorded Plant response rating (0 to 100 scale), Soybean value.
- Test system: soybean (Glycine max)
- Protocol Details: Test C preemergence, soybean
- Format: in vivo
- Reported Conditions: 31 g ai/ha Preemergence; 0 is no effect, 100 is complete control
Result Type: Plant response rating (0 to 100 scale), Soybean

Compound: Cc1c(N2CCCC(OC3CCC3)C2=O)cc(N(COC(=O)C(C)(C)C)S(=O)(=O)C(F)(F)F)c(C)c1F (centres unmarked)
Assayed System: soybean (Glycine max)
Observed Value: 0

Compound: Cc1c(N2CCC(OC3CCC3)C2=O)cc(N(COC(=O)C(C)(C)C)S(=O)(=O)C(F)(F)F)c(C)c1C (centres unmarked)
Assayed System: soybean (Glycine max)
Observed Value: 0

Compound: COC(=O)N(c1cc(N2CCC(OC3CC3)C2=O)c(C)cc1Cl)S(=O)(=O)C(F)(F)F (centres unmarked)
Assayed System: soybean (Glycine max)
Observed Value: 70

Compound: Cc1c(NS(=O)(=O)C(F)(F)F)cc(N2CCC(OC3CCC3)C2=O)c(C)c1C (centres unmarked)
Assayed System: soybean (Glycine max)
Observed Value: 50

Compound: Cc1c(NS(=O)(=O)C(F)(F)F)cc(N2CCC(OC3CC3)C2=O)c(C)c1C (centres unmarked)
Assayed System: soybean (Glycine max)
Observed Value: 50

Compound: C=CCO/N=C1\CCN(c2cc(NS(=O)(=O)C(F)(F)F)c(C)cc2C)C1=O
Assayed System: soybean (Glycine max)
Observed Value: 50

Compound: Cc1cc(C)c(N(C(=O)OC(C)C)S(=O)(=O)C(F)(F)F)cc1N1CCC(OC2CC2)C1=O (centres unmarked)
Assayed System: soybean (Glycine max)
Observed Value: 0

Compound: Cc1cc(C)c(N2CCC(OC3COC3)C2=O)cc1NS(=O)(=O)C(F)(F)F (centres unmarked)
Assayed System: soybean (Glycine max)
Observed Value: 40

* * *

- System: ducksalad (Heteranthera limosa)
- Protocol Details: Test D flooded paddy test, ducksalad
- Assay type: in vivo
- Design: key: 0 = no effect, 100 = complete control
- Reported Conditions: 250 g ai/ha, Flood; applied to paddy water at 2-leaf stage; visual rating after 13 days; scale 0 (no effect) to 100 (complete control)
Plant response rating, Ducksalad under 80 gets YES, anything at or over 80 gets NO.

Molecule: Cc1c(N2CCCC(OC3CC3)C2=O)cc(N(COC(=O)C(C)(C)C)S(=O)(=O)C(F)(F)F)c(C)c1F (stereo not shown)
Group: YES
--
Molecule: Cc1cc(C)c(N2CCC(OCC3CCC3)C2=O)cc1NS(=O)(=O)C(F)(F)F (stereo not shown)
Group: NO
--
Molecule: C#CCO/N=C1\CCN(c2cc(NS(=O)(=O)C(F)(F)F)c(C)cc2C)C1=O
Group: NO
--
Molecule: Cc1cc(C)c(N2CCC(OCC3CCC3(F)F)C2=O)cc1NS(=O)(=O)C(F)(F)F (stereo not shown)
Group: NO
--
Molecule: Cc1cc(C)c(N2CCC(OC3COC3)C2=O)cc1NS(=O)(=O)C(F)(F)F (stereo not shown)
Group: YES
--
Molecule: Cc1c(N2CCC(OC3CCC3)C2=O)cc(N(C(=O)OCC(C)C)S(=O)(=O)C(F)(F)F)c(C)c1C (stereo not shown)
Group: NO
--
Molecule: Cc1cc(C)c(N(COC(=O)C(C)(C)C)S(=O)(=O)C(F)(F)F)cc1N1CCC(OCC2CC(F)(F)C2)C1=O (stereo not shown)
Group: NO
--
Molecule: Cc1cc(C)c(N2CCC(OCC3CCCO3)C2=O)cc1NS(=O)(=O)C(F)(F)F (stereo not shown)
Group: NO
--
Molecule: Cc1cc(C)c(N(COC(=O)C(C)(C)C)S(=O)(=O)C(F)(F)F)cc1N1CCC(OCC2CCC2)C1=O (stereo not shown)
Group: NO
--
Molecule: Cc1c(N2CCC(OC3CC3)C2=O)cc(N(C(=O)OCC(C)C)S(=O)(=O)C(F)(F)F)c(C)c1C (stereo not shown)
Group: NO
--
Molecule: Cc1c(NS(=O)(=O)C(F)(F)F)cc(N2CCC(OC3CCC3)C2=O)c(C)c1F (stereo not shown)
Group: YES
--
Molecule: Cc1c(NS(=O)(=O)C(F)(F)F)cc(N2CCC(OC3CC3)C2=O)c(C)c1C (stereo not shown)
Group: NO
--
Molecule: CCOC(=O)N(c1cc(N2CCC(OC3CC3)C2=O)c(C)cc1C)S(=O)(=O)C(F)(F)F (stereo not shown)
Group: YES
--
Molecule: Cc1cc(C)c(N2CCC(OCC3CC3(F)F)C2=O)cc1NS(=O)(=O)C(F)(F)F (stereo not shown)
Group: YES

* * *

- Tested on: ragweed (common ragweed, Ambrosia artemisiifolia)
- Protocol Details: Test C preemergence, ragweed
- Type: in vivo
- Reported Conditions: 125 g ai/ha Preemergence; 0 is no effect, 100 is complete control
Result Type: Plant response rating (0 to 100 scale), Ragweed

Compound: CCOC(=O)N(c1cc(N2CCC(OC3CC3)C2=O)c(C)cc1C)S(=O)(=O)C(F)(F)F (centres unmarked)
Observed Value: 10
//
Compound: Cc1cc(C)c(N(COC(=O)C(C)(C)C)S(=O)(=O)C(F)(F)F)cc1N1CCC(OCC2CC2(F)F)C1=O (centres unmarked)
Observed Value: 60
//
Compound: Cc1c(NS(=O)(=O)C(F)(F)F)cc(N2CCC(OC3CC3)C2=O)c(C)c1C (centres unmarked)
Observed Value: 100
//
Compound: Cc1c(NS(=O)(=O)C(F)(F)F)cc(N2CCC(OC3CC3)C2=O)c(C)c1F (centres unmarked)
Observed Value: 100
//
Compound: Cc1cc(C)c(N2CC/C(=N\O)C2=O)cc1NS(=O)(=O)C(F)(F)F
Observed Value: 30
//
Compound: CC#CCOC1CCN(c2cc(NS(=O)(=O)C(F)(F)F)c(C)cc2C)C1=O (centres unmarked)
Observed Value: 100
//
Compound: Cc1c(N2CCC(OC3CC3)C2=O)cc(N(COC(=O)C(C)(C)C)S(=O)(=O)C(F)(F)F)c(C)c1C (centres unmarked)
Observed Value: 100
//
Compound: Cc1cc(C)c(N2CCC(OCc3ccccc3)C2=O)cc1NS(=O)(=O)C(F)(F)F (centres unmarked)
Observed Value: 90
//
Compound: Cc1cc(C)c(N2CCC(O)C2=O)cc1NS(=O)(=O)C(F)(F)F (centres unmarked)
Observed Value: 60
//
Compound: Cc1c(NS(=O)(=O)C(F)(F)F)cc(N2CCC(OCC3CCC3)C2=O)c(C)c1F (centres unmarked)
Observed Value: 100
//
Compound: Cc1c(N2CCC(OC3CCC3)C2=O)cc(N(COC(=O)C(C)(C)C)S(=O)(=O)C(F)(F)F)c(C)c1C (centres unmarked)
Observed Value: 70
//
Compound: Cc1cc(C)c(N2CCC(OC3COC3)C2=O)cc1NS(=O)(=O)C(F)(F)F (centres unmarked)
Observed Value: 100
//
Compound: Cc1c(N2CCC(OC3CCC3)C2=O)cc(N(COC(=O)C(C)(C)C)S(=O)(=O)C(F)(F)F)c(C)c1F (centres unmarked)
Observed Value: 100
//
Compound: Cc1cc(C)c(N2CCC(OCC3CC3(F)F)C2=O)cc1NS(=O)(=O)C(F)(F)F (centres unmarked)
Observed Value: 90
//
Compound: COC(=O)N(c1cc(N2CCC(OC3CC3)C2=O)c(C)cc1C)S(=O)(=O)C(F)(F)F (centres unmarked)
Observed Value: 0
//
Compound: C#CCO/N=C1\CCN(c2cc(NS(=O)(=O)C(F)(F)F)c(C)cc2C)C1=O
Observed Value: 100
//
Compound: Cc1c(N2CCCC(OC3CCC3)C2=O)cc(N(COC(=O)C(C)(C)C)S(=O)(=O)C(F)(F)F)c(C)c1F (centres unmarked)
Observed Value: 80
